Molecular target: GMPPNP-bound KRAS G12C protein and cRAF RAS-binding domain (cRAF-RBD) (Homo sapiens, UniProt P01116, G12C)
Construct: made in house; host or cells: E. coli
Sequence (P01116 with tags, fused parts or gaps isoform P01116-2 G12C): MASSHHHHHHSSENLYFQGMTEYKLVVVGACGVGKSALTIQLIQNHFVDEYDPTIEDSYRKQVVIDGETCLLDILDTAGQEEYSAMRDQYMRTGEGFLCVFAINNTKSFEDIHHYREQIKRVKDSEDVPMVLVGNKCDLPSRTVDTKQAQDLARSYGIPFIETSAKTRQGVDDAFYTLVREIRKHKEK
Assay: Inhibitory activity on interaction between KRAS G12C and cRAF (Alpha technology)
Type: biochemical
Details: GMPPNP-bound KRAS G12C incubated with compound at 25° C. for 1 hour, then cRAF-RBD, Alpha signal; read-out: IC50
VALUE_KIND: pIC50
Answer as the number alone; pIC50 is minus log10 of concentration in mol/L.

Cc1cc2c(ncn2C)c(Cl)c1-c1cccn2c(C(=O)c3ccc(NC(=O)/C=C/CNC(C)(C)C)c(C#N)c3)ccc12    7.72

Query: // returns reported pIC50 for input CS(=O)(=O)N1CCC(NC/C=C/C(=O)Nc2ccc(C(=O)Nc3cccc(-c4cc5nccn5cc4Cl)c3)cc2C#N)CC1
Reply: 7.12

Query: Item CO[C@H]1CC[C@H](NC/C=C/C(=O)Nc2ccc(C(=O)c3nn(C)c4c(-c5cc6ncn(C)c6cc5C)cccc34)cc2C#N)CC1 has what recorded pIC50?
Reply: 6.62

Query: Return reported pIC50; argument: CO[C@H]1CC[C@H](NC/C=C/C(=O)Nc2ccc(C(=O)c3csc4c(-c5cc6ncn(C)c6cc5C)cccc34)cc2C#N)CC1
Reply: 7.07

Query: Quick one: pIC50 of CO[C@H]1CC[C@H](NC/C=C/C(=O)Nc2ccc(C(=O)c3ccc4c(-c5c(C)cc6c(ncn6C)c5Cl)cccn34)cc2C#N)CC1 ?
Reply: 7.70

Query: Item Cn1cc2c(Cl)c(-c3cccn4c(C(=O)c5ccc(NC(=O)/C=C/CNC(C)(C)C)c(C#N)c5)ccc34)ccc2n1 has what recorded pIC50?
Reply: 6.59

Query: If you can, please state the reported pIC50 value of CO[C@H]1CC[C@H](NC/C=C/C(=O)Nc2ccc(C(=O)c3c[nH]c4c(-c5cc6ncn(C)c6cc5C(F)(F)F)cccc34)cc2C#N)CC1 .
Reply: 7.72

Query: Please look up its pIC50: CO[C@H]1CC[C@H](NC/C=C/C(=O)Nc2ccc(C(=O)c3ccc4c(-c5c(Cl)ncn5C(C)C)cccn34)cc2C#N)CC1
Reply: 6.77

Query: GET /values?readout=pIC50&item= COc1ccccc1-c1cccn2c(C(=O)c3ccc(NC(=O)/C=C/CN[C@H]4CC[C@H](OC)CC4)c(C#N)c3)ccc12
Reply: 6.70
